Origin of the recorded values: ChEMBL document CHEMBL5149969

target.of.assay: Amyloid-beta precursor protein (Homo sapiens)
assay.overview: Inhibition of amyloid beta 42 (unknown origin) expressed in Escherichia coli BL21 (DE3) at 10 uM relative to control
readout.label: inhibition (%)

smiles_data=O=S(=O)(c1ccccc1)n1ccc2c(N3CCN(CCN4CCN(Cc5cccc6c5ccn6Cc5ccccc5)CC4)CC3)cccc21 readout_label=inhibition value_unit=% test_result=64.8
smiles_data=Cc1c(OCc2ccccc2)cccc1N1CCN(CCCCCCCNc2c3c(nc4ccccc24)CCCC3)CC1 readout_label=inhibition value_unit=% test_result=67.4
smiles_data=Cc1c(OCc2ccccc2)cccc1N1CCN(CCCCCCNCc2ccccc2)CC1 readout_label=inhibition value_unit=% test_result=64.2
smiles_data=Cc1c(OCc2ccccc2)cccc1N1CCN(CCNc2c3c(nc4ccccc24)CCCC3)CC1 readout_label=inhibition value_unit=% test_result=55.7
smiles_data=Cc1c(OCc2ccccc2)cccc1N1CCN(CCCNCc2ccccc2)CC1 readout_label=inhibition value_unit=% test_result=64.9
smiles_data=Cc1c(OCc2ccccc2)cccc1N1CCN(CCCCNC2CCN(Cc3ccccc3)CC2)CC1 readout_label=inhibition value_unit=% test_result=62
smiles_data=Cc1c(OCc2ccccc2)cccc1N1CCN(CCNC2CCN(Cc3ccccc3)CC2)CC1 readout_label=inhibition value_unit=% test_result=54.1
smiles_data=Cc1c(OCc2ccccc2)cccc1N1CCN(CCCCCCNc2c3c(nc4ccccc24)CCCC3)CC1 readout_label=inhibition value_unit=% test_result=66.9
smiles_data=Cc1c(OCc2ccccc2)cccc1N1CCN(CCCNC2CCN(Cc3ccccc3)CC2)CC1 readout_label=inhibition value_unit=% test_result=55.7
smiles_data=Cc1c(OCc2ccccc2)cccc1N1CCN(CCCCCCCCNc2c3c(nc4ccccc24)CCCC3)CC1 readout_label=inhibition value_unit=% test_result=66.7
smiles_data=O=S(=O)(c1ccccc1)n1ccc2c(N3CCN(CCCCCCNC4CCN(Cc5ccccc5)CC4)CC3)cccc21 readout_label=inhibition value_unit=% test_result=61.8
smiles_data=c1ccc(Cn2ccc3c(N4CCN(CCCCNc5c6c(nc7ccccc57)CCCC6)CC4)cccc32)cc1 readout_label=inhibition value_unit=% test_result=57.7

----------
target.of.assay: Amyloid-beta precursor protein (Homo sapiens, UniProt P05067)
Sequence (P05067 whole entry): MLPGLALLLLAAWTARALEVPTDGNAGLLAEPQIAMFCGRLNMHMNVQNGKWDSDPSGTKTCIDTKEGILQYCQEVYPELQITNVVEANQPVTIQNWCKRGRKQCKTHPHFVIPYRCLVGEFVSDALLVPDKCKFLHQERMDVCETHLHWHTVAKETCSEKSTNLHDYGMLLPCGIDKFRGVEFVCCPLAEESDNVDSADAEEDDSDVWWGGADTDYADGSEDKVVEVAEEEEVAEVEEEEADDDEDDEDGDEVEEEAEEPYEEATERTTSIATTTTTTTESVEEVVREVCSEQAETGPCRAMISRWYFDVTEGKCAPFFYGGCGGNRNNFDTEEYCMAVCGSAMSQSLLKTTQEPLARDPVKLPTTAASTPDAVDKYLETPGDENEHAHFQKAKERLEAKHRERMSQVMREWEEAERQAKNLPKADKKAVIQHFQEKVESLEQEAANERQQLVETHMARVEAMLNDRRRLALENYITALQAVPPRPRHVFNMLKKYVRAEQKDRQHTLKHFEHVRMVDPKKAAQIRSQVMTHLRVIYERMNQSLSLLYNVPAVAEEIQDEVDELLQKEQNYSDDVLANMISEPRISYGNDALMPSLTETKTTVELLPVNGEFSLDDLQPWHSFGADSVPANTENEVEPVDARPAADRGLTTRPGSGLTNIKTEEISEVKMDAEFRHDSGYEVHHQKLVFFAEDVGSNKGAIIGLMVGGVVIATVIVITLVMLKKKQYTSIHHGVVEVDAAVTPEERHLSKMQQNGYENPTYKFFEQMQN
assay.overview: Inhibition of amyloid beta 42 transfected in human H4 cells incubated for 20 to 24 hrs by LPECL assay
Some molecules, each annotated with its measured IC50.

[ask] Please look up its IC50: COc1cc(/C=C/c2cc(/C=C/c3ccc(O)c(OC)c3)n(Cc3ccccc3)n2)ccc1O
[reply] > 1000 nM

[ask] Can you handle COc1cc(/C=C/c2cc(/C=C/c3ccc(O)c(OC)c3)n(-c3ccc([N+](=O)[O-])cc3)n2)ccc1O next?
[reply] > 1000 nM

[ask] Can you handle COc1cc(/C=C/c2cc(/C=C/c3ccc(OCC(=O)OC(C)(C)C)c(OC)c3)on2)ccc1OCC(=O)OC(C)(C)C next?
[reply] > 1000 nM

[ask] Can you handle COc1cc(/C=C/c2cc(/C=C/c3ccc(O)c(OC)c3)n(-c3ccc(Cl)nn3)n2)ccc1O next?
[reply] > 1000 nM

[ask] Can you handle COc1cc(/C=C/c2cc(/C=C/c3ccc(O)c(OC)c3)n(-c3ccc(C)cc3)n2)ccc1O next?
[reply] > 1000 nM

[ask] Can you handle COc1cc(/C=C/c2cc(/C=C/c3ccc(O)c(OC)c3)n(-c3ccccc3)n2)ccc1O next?
[reply] > 1000 nM

----------
target.of.assay: Microtubule-associated protein tau (Homo sapiens, UniProt P10636)
Sequence (P10636 whole entry): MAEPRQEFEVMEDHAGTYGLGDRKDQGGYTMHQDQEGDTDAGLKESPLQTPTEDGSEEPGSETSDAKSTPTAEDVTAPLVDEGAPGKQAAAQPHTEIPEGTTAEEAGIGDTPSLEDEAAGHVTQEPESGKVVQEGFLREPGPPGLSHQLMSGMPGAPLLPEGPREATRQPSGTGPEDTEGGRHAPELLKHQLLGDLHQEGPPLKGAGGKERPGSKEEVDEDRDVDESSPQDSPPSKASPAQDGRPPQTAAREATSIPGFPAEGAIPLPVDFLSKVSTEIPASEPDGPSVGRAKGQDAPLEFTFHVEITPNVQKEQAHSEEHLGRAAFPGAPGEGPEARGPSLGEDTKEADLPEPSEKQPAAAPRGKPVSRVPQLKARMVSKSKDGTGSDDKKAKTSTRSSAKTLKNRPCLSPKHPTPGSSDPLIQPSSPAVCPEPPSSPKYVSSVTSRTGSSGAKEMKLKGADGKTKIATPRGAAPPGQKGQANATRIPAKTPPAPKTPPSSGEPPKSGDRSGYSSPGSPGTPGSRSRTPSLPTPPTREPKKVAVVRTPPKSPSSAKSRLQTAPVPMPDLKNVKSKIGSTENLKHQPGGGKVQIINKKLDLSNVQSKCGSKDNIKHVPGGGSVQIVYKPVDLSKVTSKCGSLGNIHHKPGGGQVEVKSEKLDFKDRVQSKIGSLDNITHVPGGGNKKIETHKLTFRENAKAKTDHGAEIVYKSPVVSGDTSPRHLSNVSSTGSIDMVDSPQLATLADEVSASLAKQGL
assay.overview: Inhibition of Tau (unknown origin) expressed in Escherichia coli BL21 (DE3) at 10 uM relative to control
readout.label: inhibition (%)

smiles_data=Cc1c(OCc2ccccc2)cccc1N1CCN(CCCNC2CCN(Cc3ccccc3)CC2)CC1 test_result=60.2
smiles_data=O=S(=O)(c1ccccc1)n1ccc2c(N3CCN(CCN4CCN(Cc5cccc6c5ccn6Cc5ccccc5)CC4)CC3)cccc21 test_result=54.6
smiles_data=Cc1c(OCc2ccccc2)cccc1N1CCN(CCCCCCCNc2c3c(nc4ccccc24)CCCC3)CC1 test_result=70.3
smiles_data=Cc1c(OCc2ccccc2)cccc1N1CCN(CCNc2c3c(nc4ccccc24)CCCC3)CC1 test_result=58.6
smiles_data=O=S(=O)(c1ccccc1)n1ccc2c(N3CCN(CCCCCCNC4CCN(Cc5ccccc5)CC4)CC3)cccc21 test_result=52.7
smiles_data=Cc1c(OCc2ccccc2)cccc1N1CCN(CCCCNC2CCN(Cc3ccccc3)CC2)CC1 test_result=62.8
smiles_data=Cc1c(OCc2ccccc2)cccc1N1CCN(CCCCCCNc2c3c(nc4ccccc24)CCCC3)CC1 test_result=64

----------
target.of.assay: Microtubule-associated protein tau (Homo sapiens)
assay.overview: Inhibition of Tau (unknown origin) expressed in Escherichia coli BL21 (DE3) at 10 uM relative to control
readout.label: inhibition (%)

smiles_data=Cc1c(OCc2ccccc2)cccc1N1CCN(CCNC2CCN(Cc3ccccc3)CC2)CC1 readout_label=inhibition test_result=57.3
smiles_data=Cc1c(OCc2ccccc2)cccc1N1CCN(CCCCCCCCNc2c3c(nc4ccccc24)CCCC3)CC1 readout_label=inhibition test_result=60.2
smiles_data=Cc1c(OCc2ccccc2)cccc1N1CCN(CCCNCc2ccccc2)CC1 readout_label=inhibition test_result=64.5
smiles_data=c1ccc(Cn2ccc3c(N4CCN(CCCCNc5c6c(nc7ccccc57)CCCC6)CC4)cccc32)cc1 readout_label=inhibition test_result=62.9
smiles_data=Cc1c(OCc2ccccc2)cccc1N1CCN(CCCCCCNCc2ccccc2)CC1 readout_label=inhibition test_result=64.8

----------
target.of.assay: Microtubule-associated protein tau (Homo sapiens)
assay.overview: Inhibition of tau depolymerization (unknown origin) transfected in H4 cells incubated for 20 to 24 hrs by LPECL assay
Assay type: cell-based
readout.label: DC50 (µM)

smiles_data=COc1cc(/C=C/c2cc(/C=C/c3ccc(O)c(OC)c3)n(-c3ccccc3)n2)ccc1O target_of_assay="Microtubule-associated protein tau (Homo sapiens)" value_unit=µM test_result=73

P: COc1cc(/C=C/c2cc(/C=C/c3ccc(O)c(OC)c3)n(-c3ccc(C(C)C)cc3)n2)ccc1O
Q: COc1cc(/C=C/c2cc(/C=C/c3ccc(O)c(OC)c3)n(Cc3ccccc3)n2)ccc1O
R: COc1cc(/C=C/c2cc(/C=C/c3ccc(O)c(OC)c3)n(-c3ccc(Cl)nn3)n2)ccc1O
S: COc1cc(/C=C/c2cc(/C=C/c3ccc(O)c(OC)c3)n(C)n2)ccc1O
[ask] Please list the entries, largest DC50 first. Answer format: the labels, ordered as requested.
[reply] P, Q, R, S

----------
target.of.assay: Microtubule-associated protein tau (Homo sapiens)
assay.overview: Inhibition of tau (unknown origin) transfected in human H4 cells incubated for 20 to 24 hrs by LPECL assay
pIC50: −log10 of the molar value.
readout.label: pIC50

A: COc1cc(/C=C/c2cc(/C=C/c3ccc(O)c(OC)c3)[nH]n2)ccc1O
B: COc1cc(/C=C/c2cc(/C=C/c3ccc(O)c(OC)c3)n(CCO)n2)ccc1O
[ask] Smaller pIC50 value? Options are A and B # reply format: chosen label
[reply] B

1: COc1cc(/C=C/c2cc(/C=C/c3ccc(O)c(OC)c3)n(-c3ccc(C)cc3)n2)ccc1O
2: COc1cc(/C=C/c2cc(/C=C/c3ccc(O)c(OC)c3)n(C)n2)ccc1O
3: COc1cc(/C=C/c2cc(/C=C/c3ccc(O)c(OC)c3)n(-c3cccc([N+](=O)[O-])c3)n2)ccc1O
[ask] Ascending sort, pIC50. Answer format: the labels, ordered as requested.
[reply] 1, 2, 3

1: COc1cc(/C=C/c2cc(/C=C/c3ccc(O)c(OC)c3)n(-c3ccc(C(C)C)cc3)n2)ccc1O
2: COc1cc(/C=C/c2cc(/C=C/c3ccc(O)c(OC)c3)n(Cc3ccccc3)n2)ccc1O
3: COc1cc(/C=C/c2cc(/C=C/c3ccc(O)c(OC)c3)n(-c3cc(Cl)cc(Cl)c3)n2)ccc1O
[ask] Please list the entries, largest pIC50 first. Answer format: the labels, ordered as requested.
[reply] 3, 1, 2

----------
target.of.assay: Microtubule-associated protein tau (Homo sapiens)
assay.overview: Inhibition of tau depolymerization (unknown origin) transfected in H4 cells incubated for 20 to 24 hrs by LPECL assay
Type: cell-based
readout.label: DC50 (µM)

Solved entries (count: 2):
smiles_data=COc1cc(/C=C/c2cc(/C=C/c3ccc(O)c(OC)c3)n(CCO)n2)ccc1O target_of_assay="Microtubule-associated protein tau (Homo sapiens)" readout_label=DC50 value_unit=µM test_result=65
smiles_data=COc1cc(/C=C/c2cc(/C=C/c3ccc(O)c(OC)c3)n(-c3cccc([N+](=O)[O-])c3)n2)ccc1O target_of_assay="Microtubule-associated protein tau (Homo sapiens)" readout_label=DC50 value_unit=µM test_result=4

P: COc1cc(/C=C/c2cc(/C=C/c3ccc(O)c(OC)c3)n(-c3ccc([N+](=O)[O-])cc3)n2)ccc1O
Q: COc1cc(/C=C/c2cc(/C=C/c3ccc(O)c(OC)c3)[nH]n2)ccc1O
[ask] Endpoint returns the identifier whose DC50 is numerically larger, either P or Q . # reply format: chosen label
[reply] Q
(Q: 17 µM, P: 1.1 µM)
